# key: entry, value: molar heat capacity at constant pressure
- assay notes: molar heat capacity at constant pressure
- cond: 318.15 K; 100 kPa; Liquid; Small sample (50 mg) DSC
# value in J/K/mol; strip the unit string

compound: CCCCCCn1cc[n+](C)c1.F[B-](F)(F)F [1-hexyl-3-methylimidazolium tetrafluoroborate]
parameter measured: molar heat capacity at constant pressure
unit abbrev: J/K/mol
meas value: 440.7
--
compound: CCCCn1cc[n+](C)c1.F[B-](F)(F)F [1-butyl-3-methylimidazolium tetrafluoroborate]
parameter measured: molar heat capacity at constant pressure
unit abbrev: J/K/mol
meas value: 374.95
--
compound: CCn1cc[n+](C)c1.F[B-](F)(F)F [1-ethyl-3-methylimidazolium tetrafluoroborate]
parameter measured: molar heat capacity at constant pressure
unit abbrev: J/K/mol
meas value: 312.17

I am curious: what molar heat capacity at constant pressure value has been reported for CCCCCCCC[n+]1ccn(C)c1.F[B-](F)(F)F [1-methyl-3-octylimidazolium tetrafluoroborate] ?
512

###

- assay notes: molar heat capacity at constant pressure
- cond: 298.15 K; 20000 kPa; Liquid; Small sample (50 mg) DSC
# key: entry, value: molar heat capacity at constant pressure
# value in J/K/mol; strip the unit string

compound: CCCCCCCC[n+]1ccn(C)c1.F[B-](F)(F)F [1-methyl-3-octylimidazolium tetrafluoroborate]
molar heat capacity at constant pressure, J/K/mol: 500.22
--
compound: CCCCn1cc[n+](C)c1.F[B-](F)(F)F [1-butyl-3-methylimidazolium tetrafluoroborate]
molar heat capacity at constant pressure, J/K/mol: 366.36
--
compound: CCCCCCn1cc[n+](C)c1.F[B-](F)(F)F [1-hexyl-3-methylimidazolium tetrafluoroborate]
molar heat capacity at constant pressure, J/K/mol: 430.18

Turning to the following compound.
I am curious: what molar heat capacity at constant pressure value has been reported for CCn1cc[n+](C)c1.F[B-](F)(F)F [1-ethyl-3-methylimidazolium tetrafluoroborate] ?
305.18

###

- assay notes: molar heat capacity at constant pressure
- cond: 313.15 K; 60000 kPa; Liquid; Small sample (50 mg) DSC
parameter measured: molar heat capacity at constant pressure (J/K/mol)
# value in J/K/mol; strip the unit string

Example entries and their recorded answers appear below.
compound: CCn1cc[n+](C)c1.F[B-](F)(F)F [1-ethyl-3-methylimidazolium tetrafluoroborate]
molar heat capacity at constant pressure / J/K/mol: 311.17
--
compound: CCCCCCCC[n+]1ccn(C)c1.F[B-](F)(F)F [1-methyl-3-octylimidazolium tetrafluoroborate]
molar heat capacity at constant pressure / J/K/mol: 509.3
--
compound: CCCCCCn1cc[n+](C)c1.F[B-](F)(F)F [1-hexyl-3-methylimidazolium tetrafluoroborate]
molar heat capacity at constant pressure / J/K/mol: 438.77

Turning to the following compound.
I am curious: what molar heat capacity at constant pressure value has been reported for CCCCn1cc[n+](C)c1.F[B-](F)(F)F [1-butyl-3-methylimidazolium tetrafluoroborate] ?
373.21

###

# key: entry, value: molar heat capacity at constant pressure
- assay notes: molar heat capacity at constant pressure
- cond: 283.15 K; 100 kPa; Liquid; Small sample (50 mg) DSC
# value in J/K/mol; strip the unit string

Example entries and their recorded answers appear below.
compound: CCn1cc[n+](C)c1.F[B-](F)(F)F [1-ethyl-3-methylimidazolium tetrafluoroborate]
molar heat capacity at constant pressure (J/K/mol): 300.19
--
compound: CCCCCCn1cc[n+](C)c1.F[B-](F)(F)F [1-hexyl-3-methylimidazolium tetrafluoroborate]
molar heat capacity at constant pressure (J/K/mol): 422.77
--
compound: CCCCCCCC[n+]1ccn(C)c1.F[B-](F)(F)F [1-methyl-3-octylimidazolium tetrafluoroborate]
molar heat capacity at constant pressure (J/K/mol): 489.23

I am curious: what molar heat capacity at constant pressure value has been reported for CCCCn1cc[n+](C)c1.F[B-](F)(F)F [1-butyl-3-methylimidazolium tetrafluoroborate] ?
360.25

###

# key: entry, value: molar heat capacity at constant pressure
- assay notes: molar heat capacity at constant pressure
- cond: 288.15 K; 10000 kPa; Liquid; Small sample (50 mg) DSC
Numbers after ± are expanded uncertainties.
Include the unit right after the number.

I am curious: what molar heat capacity at constant pressure value has been reported for CCn1cc[n+](C)c1.F[B-](F)(F)F [1-ethyl-3-methylimidazolium tetrafluoroborate] ?
301.82 ± 4.7 J/K/mol

###

- assay notes: molar heat capacity at constant pressure
- cond: 313.15 K; 4000 kPa; Liquid; Small sample (50 mg) DSC
parameter measured: molar heat capacity at constant pressure (J/K/mol)
# value in J/K/mol; strip the unit string

Example entries and their recorded answers appear below.
compound: CCCCCCn1cc[n+](C)c1.F[B-](F)(F)F [1-hexyl-3-methylimidazolium tetrafluoroborate]
parameter measured: molar heat capacity at constant pressure
meas value: 437.87
//
compound: CCCCCCCC[n+]1ccn(C)c1.F[B-](F)(F)F [1-methyl-3-octylimidazolium tetrafluoroborate]
parameter measured: molar heat capacity at constant pressure
meas value: 509.37
//
compound: CCn1cc[n+](C)c1.F[B-](F)(F)F [1-ethyl-3-methylimidazolium tetrafluoroborate]
parameter measured: molar heat capacity at constant pressure
meas value: 310.29

Turning to the following compound.
I am curious: what molar heat capacity at constant pressure value has been reported for CCCCn1cc[n+](C)c1.F[B-](F)(F)F [1-butyl-3-methylimidazolium tetrafluoroborate] ?
372.71

###

- assay notes: molar heat capacity at constant pressure
- cond: 323.15 K; 2000 kPa; Liquid; Small sample (50 mg) DSC
parameter measured: molar heat capacity at constant pressure (J/K/mol)
# value in J/K/mol; strip the unit string

compound: CCCCCCCC[n+]1ccn(C)c1.F[B-](F)(F)F [1-methyl-3-octylimidazolium tetrafluoroborate]
meas value: 514.41

compound: CCCCn1cc[n+](C)c1.F[B-](F)(F)F [1-butyl-3-methylimidazolium tetrafluoroborate]
meas value: 377.31

compound: CCCCCCn1cc[n+](C)c1.F[B-](F)(F)F [1-hexyl-3-methylimidazolium tetrafluoroborate]
meas value: 443.72

Turning to the following compound.
I am curious: what molar heat capacity at constant pressure value has been reported for CCn1cc[n+](C)c1.F[B-](F)(F)F [1-ethyl-3-methylimidazolium tetrafluoroborate] ?
314.21

###

# key: entry, value: molar heat capacity at constant pressure
- assay notes: molar heat capacity at constant pressure
- cond: 313.15 K; 2000 kPa; Liquid; Small sample (50 mg) DSC
± gives the expanded uncertainty stated by the source.

molecule: CCn1cc[n+](C)c1.F[B-](F)(F)F [1-ethyl-3-methylimidazolium tetrafluoroborate]
molar heat capacity at constant pressure: 310.26 ± 4.8 J/K/mol
--
molecule: CCCCCCCC[n+]1ccn(C)c1.F[B-](F)(F)F [1-methyl-3-octylimidazolium tetrafluoroborate]
molar heat capacity at constant pressure: 509.38 ± 7.9 J/K/mol
--
molecule: CCCCCCn1cc[n+](C)c1.F[B-](F)(F)F [1-hexyl-3-methylimidazolium tetrafluoroborate]
molar heat capacity at constant pressure: 437.84 ± 6.8 J/K/mol

Turning to the following molecule.
I am curious: what molar heat capacity at constant pressure value has been reported for CCCCn1cc[n+](C)c1.F[B-](F)(F)F [1-butyl-3-methylimidazolium tetrafluoroborate] ?
372.69 ± 5.8 J/K/mol

###

- assay notes: molar heat capacity at constant pressure
- cond: 323.15 K; 10000 kPa; Liquid; Small sample (50 mg) DSC
# key: entry, value: molar heat capacity at constant pressure
# value in J/K/mol; strip the unit string

compound: CCCCCCn1cc[n+](C)c1.F[B-](F)(F)F [1-hexyl-3-methylimidazolium tetrafluoroborate]
molar heat capacity at constant pressure / J/K/mol: 443.82
--
compound: CCn1cc[n+](C)c1.F[B-](F)(F)F [1-ethyl-3-methylimidazolium tetrafluoroborate]
molar heat capacity at constant pressure / J/K/mol: 314.33
--
compound: CCCCn1cc[n+](C)c1.F[B-](F)(F)F [1-butyl-3-methylimidazolium tetrafluoroborate]
molar heat capacity at constant pressure / J/K/mol: 377.41

I am curious: what molar heat capacity at constant pressure value has been reported for CCCCCCCC[n+]1ccn(C)c1.F[B-](F)(F)F [1-methyl-3-octylimidazolium tetrafluoroborate] ?
514.41

###

- assay notes: molar heat capacity at constant pressure
- cond: 318.15 K; 6000 kPa; Liquid; Small sample (50 mg) DSC
# key: entry, value: molar heat capacity at constant pressure
# value in J/K/mol; strip the unit string

compound: CCn1cc[n+](C)c1.F[B-](F)(F)F [1-ethyl-3-methylimidazolium tetrafluoroborate]
parameter measured: molar heat capacity at constant pressure
unit abbrev: J/K/mol
meas value: 312.26

I am curious: what molar heat capacity at constant pressure value has been reported for CCCCCCCC[n+]1ccn(C)c1.F[B-](F)(F)F [1-methyl-3-octylimidazolium tetrafluoroborate] ?
512

Consider next the compound CCCCn1cc[n+](C)c1.F[B-](F)(F)F [1-butyl-3-methylimidazolium tetrafluoroborate] in the same way.
375.01

Consider next the compound CCCCCCn1cc[n+](C)c1.F[B-](F)(F)F [1-hexyl-3-methylimidazolium tetrafluoroborate] in the same way.
440.78

Where do these numbers come from? They come from the NIST ThermoML archive (doi:10.1021/je9004992).
